TEST_SYSTEM: Fatty-acid amide hydrolase 1 (Homo sapiens)
Sequence (whole entry): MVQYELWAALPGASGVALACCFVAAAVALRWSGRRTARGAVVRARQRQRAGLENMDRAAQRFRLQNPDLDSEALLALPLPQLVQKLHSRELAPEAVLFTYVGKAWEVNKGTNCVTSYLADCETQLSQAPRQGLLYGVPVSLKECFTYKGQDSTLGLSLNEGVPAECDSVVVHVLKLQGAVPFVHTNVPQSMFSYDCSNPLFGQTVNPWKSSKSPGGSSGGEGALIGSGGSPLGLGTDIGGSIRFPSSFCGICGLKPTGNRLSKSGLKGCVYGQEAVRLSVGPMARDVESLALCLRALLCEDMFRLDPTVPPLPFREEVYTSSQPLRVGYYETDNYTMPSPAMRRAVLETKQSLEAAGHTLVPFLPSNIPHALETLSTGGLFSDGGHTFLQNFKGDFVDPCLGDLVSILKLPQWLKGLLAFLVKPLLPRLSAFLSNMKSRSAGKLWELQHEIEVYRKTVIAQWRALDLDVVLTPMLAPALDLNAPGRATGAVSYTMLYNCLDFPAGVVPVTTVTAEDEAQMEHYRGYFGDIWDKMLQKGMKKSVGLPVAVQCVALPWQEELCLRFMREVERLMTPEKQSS
EXPERIMENT_NOTES: Inhibition of human recombinant FAAH expressed in COS7 cells using anandamide as substrate assessed as remaining activity at 10 uM
Type: cell-based
PARTICULARS: COS-7
ASSAY_METRIC: Activity (%)

> print(dat)
                            smiles.notation  numeric.value
1  CCCCc1ccc(NC(=O)N2CCN(C(c3ccccc3)c3ccccc3)CC2)cc1             84
2  O=C(Oc1ccc([N+](=O)[O-])cc1)N1CCN(C(c2ccc(F)cc2)c2ccc(F)cc2)CC1             85
3  O=C(OC(C(F)(F)F)C(F)(F)F)N1CCN(Cc2cccc(Oc3ccccc3)c2)CC1             76
4  O=C(Nc1cccnc1)N1CCN(C(c2ccccc2)c2ccccc2)CC1             87

Values were extracted from ChEMBL document CHEMBL3352117.
